assay: AUC in Beagle dog at 5 mg/kg, po by LC/MS analysis; type: ADME, organism-based, Canis lupus familiaris; design: dose 5 mg/kg, route oral; settings: plasma
READOUT: AUC (µM·h)
Numbers only, in µM·h.

Given item CC[C@@H]1C[C@]1(NC(=O)[C@@H]1C[C@@H]2CN1C(=O)[C@H](C(C)(C)C)NC(=O)OCC(C)(C)CCCCc1cccc3c1CN(C3)C(=O)O2)C(=O)NS(=O)(=O)C1CC1 [VANIPREVIR] , the value recorded as its AUC is 1.2

---

Task for the reader: assign each of the following compounds its reported Ki.
test: Inhibition of HCV JFH-1 full length NS3/4A protease expressed in Escherichia coli after 1 hr by time-resolved fluorescence assay; set-up: species or system Hepatitis C virus JFH-1

COMPOUND	Ki
CC[C@@H]1C[C@]1(NC(=O)[C@@H]1C[C@@H]2CN1C(=O)[C@H](C(C)(C)C)NC(=O)OCCC/C=C/c1cccc3c1CN(C3)C(=O)O2)C(=O)NS(=O)(=O)C1CC1	19 nM
CC[C@@H]1C[C@]1(NC(=O)[C@@H]1C[C@@H]2CN1C(=O)[C@H](C(C)(C)C)NC(=O)OCC(C)(C)CCCCc1cccc3c1CN(C3)C(=O)O2)C(=O)NS(=O)(=O)C1CC1 [VANIPREVIR]	0.9 nM
C=C[C@@H]1C[C@]1(NC(=O)[C@@H]1C[C@@H]2CN1C(=O)[C@H](C(C)(C)C)NC(=O)OCCC/C=C/c1cccc3c1CN(C3)C(=O)O2)C(=O)NS(=O)(=O)C1CC1	2.6 nM
CC[C@@H]1C[C@]1(NC(=O)[C@@H]1C[C@@H]2CN1C(=O)[C@H](C(C)(C)C)NC(=O)OCCCCCc1cccc3c1CN(C3)C(=O)O2)C(=O)NS(=O)(=O)C1CC1	4 nM

# context switch: different compound, same Ki
// sample C=C[C@@H]1C[C@]1(NC(=O)[C@@H]1C[C@@H]2CN1C(=O)[C@H](C(C)(C)C)NC(=O)OCCCCCc1cccc3c1CN(C3)C(=O)O2)C(=O)NS(=O)(=O)C1CC1 , its Ki was 0.9 nM
